Each recorded value in this set is attributed to PubChem BioAssay.

- procedure-text: basal CRE-LacZ reporter activity in PC12 – cell-based, unstimulated, primary screen (AID 1145)
- experimental-parameters: no forskolin, luminescence, 4.5 h, higher = more signal, called active from +8 up or from −8 down
Note: every record was labeled by where its z-score sits among low band: < -0.01; middle band: ≥ -0.01 and < 0.4; high band: ≥ 0.4

Kindly state the category for this molecule: COC(=O)C(CC#Cc1ccc2c(c1)[C@]1(C(=O)N2)[C@H](c2ccc(O)cc2)N2[C@H](c3ccccc3)[C@H](c3ccccc3)OC(=O)[C@H]2[C@@H]1C(=O)NC[C@H](O)c1ccccc1)C(=O)OC
low band

Kindly state the category for this molecule: CCCC[C@@H](O)C1=C(COC)C[C@H]2C(=O)N(Cc3ccccc3)C(=O)[C@H]2[C@H]1CO
middle band

Kindly state the category for this molecule: COc1cc2c(cc1O)C(c1cccs1)N(Cc1cc3c(cc1Br)OCO3)CC2 (stereo not given)
middle band

Kindly state the category for this molecule: C=CC[C@@H](OC(=O)Nc1ccc(OC)cc1)c1ccc(O)c(F)c1
high band

Kindly state the category for this molecule: CN(C)C(=O)[C@]1(Cc2ccccc2CN=[N+]=[N-])N=C(c2ccc(OCCCO)cc2)O[C@@H]1c1ccccc1
high band

Kindly state the category for this molecule: CCCCN1CC=CC23O[C@@H]4/C=C\CCC(C)OC(=O)C4[C@H]2C(=O)N(CCCO)[C@@H]3C1=O (stereo not given in full)
middle band

Kindly state the category for this molecule: C[N+](C)(C)CCCC[C@@H]1NC(=O)[C@@H]2C[C@H](C(=O)NCCCCCCN)[C@H](c3cccc(OCCO)c3)N2C1=O
high band

Kindly state the category for this molecule: Cc1cc(C)c(C(O)C2C=CC3C(=O)N(c4ccccc4)C(=O)C3N2Nc2ccccc2F)c(C)c1 (stereo not given)
high band

Kindly state the category for this molecule: C=CCC(OC(C)=O)[C@@H]1[C@@H](N(Cc2ccc(-c3cccc(C(F)(F)F)c3)o2)C(=O)Cc2ccc(OC)cc2)c2cc(OCCCO)ccc2N1C(=O)c1ccc(-c2ccccc2)cc1 (stereo not given in full)
high band

Kindly state the category for this molecule: CC(=O)NCCCC[C@@H]1NC(=O)[C@@H]2C[C@H](C(=O)NCCCCCN)[C@H](c3ccc(O)cc3)N2C1=O
middle band

Kindly state the category for this molecule: C=CC[C@@]1(C(=O)NCCCOC)N=C(c2ccc(OCCCO)cc2)O[C@@H]1c1ccccc1N=[N+]=[N-]
low band

Kindly state the category for this molecule: [N-]=[N+]=Nc1ccccc1C[C@]1(C(=O)O)COC(c2ccc(OCCCO)cc2)=N1
high band

Kindly state the category for this molecule: COCCOC(=O)N1C(=O)[C@@]2(c3cc(C#CC4=CCCCC4)ccc31)[C@H](c1ccccc1OCCO)N1[C@H](c3ccccc3)[C@H](c3ccccc3)OC(=O)[C@H]1[C@@H]2C(=O)N1CCN(c2ncccn2)CC1
low band

Kindly state the category for this molecule: CC(C)N1C(=O)c2ccccc2[C@@H](C(=O)NCCN2CCOCC2)[C@@H]1c1ccc(CO)cc1
middle band

Kindly state the category for this molecule: NC(=O)[C@@]1(Cc2ccccc2)COC(c2ccc(OCCCO)cc2)=N1
high band

Kindly state the category for this molecule: C=C[C@@H](OC)[C@H](OC(=O)Nc1ccc(OC)cc1)c1ccc(O)c(F)c1
high band

Kindly state the category for this molecule: O=C1O[C@H](c2ccccc2)[C@H](c2ccccc2)N2[C@H]1[C@@H](C(=O)O)[C@]1(C(=O)Nc3ccc(C#CCCO)cc31)[C@H]2c1ccccc1OCCO
low band

Kindly state the category for this molecule: CCOC(=O)C[C@H]1[C@H](OC(=O)c2cc3ccccc3oc2=O)[C@@H](NC(=O)c2ccc3ccccc3n2)c2cc(OCCCO)ccc2N1C(=O)Cc1ccc(OC)cc1
low band

Kindly state the category for this molecule: CC(CO)N1C(=O)[C@@H]2[C@H]3C(=O)OCC=C[C@H]3OC23C=CCN(Cn2nnc4ccccc42)C(=O)[C@@H]13 (stereo not given in full)
middle band

Kindly state the category for this molecule: Cc1ccc(N2C(=O)c3ccccc3[C@@H](C(=O)NCCCN(C)C)[C@@H]2c2ccc(CO)cc2)nc1
middle band

Kindly state the category for this molecule: C#CCN(Cc1ccccc1Br)[C@H](/C=C/c1ccccc1)[C@@H](O)Cc1ccccc1
high band

Kindly state the category for this molecule: CC(C)N1CC=CC23O[C@@H]4C=CCCOC(=O)C4[C@H]2C(=O)N(CCCO)[C@@H]3C1=O (stereo not given in full)
low band

Kindly state the category for this molecule: [N-]=[N+]=Nc1ccccc1[C@H]1OC(c2ccc(OCCCO)cc2)=N[C@@]1(Cc1ccccc1)C(=O)NCCN1CCOCC1
low band

Kindly state the category for this molecule: COCCOC(=O)N1C(=O)[C@@]2(c3ccccc31)[C@H](c1ccc(O)cc1)N1[C@H](c3ccccc3)[C@H](c3ccccc3)OC(=O)[C@H]1[C@@H]2C(=O)N1CCN(c2ncccn2)CC1
low band

Kindly state the category for this molecule: CC(=O)NCCCC[C@@H]1NC(=O)[C@@H]2C[C@H](C(=O)NCCCCCN)[C@H](c3cccc(OCCO)c3)N2C1=O
low band

Kindly state the category for this molecule: COc1ccc(C#Cc2ccc3c(c2)[C@]2(C(=O)N3)[C@H](C(=O)O)[C@H]3C(=O)O[C@H](c4ccccc4)[C@H](c4ccccc4)N3[C@@H]2c2ccc(O)cc2)cc1
middle band

Kindly state the category for this molecule: N[C@@H](Cc1ccccc1)C(=O)NCc1cn(Cc2ccccc2)nn1
middle band

Kindly state the category for this molecule: C=C[C@H]1C(C(=O)OCC)=CC[C@@H](c2ccccc2)N1S(=O)(=O)c1ccc(C)cc1
low band

Kindly state the category for this molecule: CCOc1cc(C(O)C2C=CC3C(=O)NC(=O)C3N2Nc2ccc(Cl)cc2Cl)ccc1O (stereo not given)
high band
